Below are pIC50 values recorded for UniProt:P17948.
Sequence (P17948 whole entry): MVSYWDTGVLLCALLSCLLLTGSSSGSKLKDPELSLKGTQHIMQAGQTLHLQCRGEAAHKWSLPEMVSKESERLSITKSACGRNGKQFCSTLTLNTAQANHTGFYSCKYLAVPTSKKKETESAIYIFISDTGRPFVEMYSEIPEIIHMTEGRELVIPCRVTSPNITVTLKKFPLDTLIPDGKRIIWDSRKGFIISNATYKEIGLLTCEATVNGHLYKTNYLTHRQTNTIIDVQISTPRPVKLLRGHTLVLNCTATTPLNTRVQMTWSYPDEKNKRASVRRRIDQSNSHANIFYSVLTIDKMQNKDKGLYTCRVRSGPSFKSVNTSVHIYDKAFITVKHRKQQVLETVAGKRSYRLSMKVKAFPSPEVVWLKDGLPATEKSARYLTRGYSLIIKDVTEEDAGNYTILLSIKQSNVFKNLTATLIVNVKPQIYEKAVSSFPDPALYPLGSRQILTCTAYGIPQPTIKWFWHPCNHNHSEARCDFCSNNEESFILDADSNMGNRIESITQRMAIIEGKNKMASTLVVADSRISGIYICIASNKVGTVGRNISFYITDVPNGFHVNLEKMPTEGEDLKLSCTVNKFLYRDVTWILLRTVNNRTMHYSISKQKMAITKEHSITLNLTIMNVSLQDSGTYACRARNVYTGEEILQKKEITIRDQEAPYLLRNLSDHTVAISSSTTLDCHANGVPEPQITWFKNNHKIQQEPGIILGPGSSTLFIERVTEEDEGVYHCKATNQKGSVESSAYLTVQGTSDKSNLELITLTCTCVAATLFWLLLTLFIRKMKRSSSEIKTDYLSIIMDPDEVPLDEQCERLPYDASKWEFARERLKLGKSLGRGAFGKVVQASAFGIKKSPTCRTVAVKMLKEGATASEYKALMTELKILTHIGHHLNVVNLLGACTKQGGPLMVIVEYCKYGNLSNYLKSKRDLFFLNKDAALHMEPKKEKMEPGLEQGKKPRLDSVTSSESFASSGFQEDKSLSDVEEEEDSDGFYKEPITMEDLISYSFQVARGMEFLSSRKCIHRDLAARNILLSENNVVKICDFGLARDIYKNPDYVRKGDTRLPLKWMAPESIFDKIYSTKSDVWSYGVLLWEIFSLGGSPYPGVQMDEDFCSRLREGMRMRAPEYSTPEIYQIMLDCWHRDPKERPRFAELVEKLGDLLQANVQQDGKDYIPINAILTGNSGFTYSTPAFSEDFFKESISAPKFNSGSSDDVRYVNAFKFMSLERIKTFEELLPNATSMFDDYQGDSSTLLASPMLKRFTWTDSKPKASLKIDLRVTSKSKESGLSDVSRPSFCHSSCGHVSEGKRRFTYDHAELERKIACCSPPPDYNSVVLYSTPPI
Keep it numeric: pIC50 is minus log10 of the concentration in mol/L.

QUERY: Request the reported pIC50 associated with "Cc1nc(Nc2cc(-c3ccc(CNC(=O)OCc4ccccc4)cc3)n[nH]2)cc(N2CCNCC2)n1"
RESULT: 7.09

QUERY: Repeat for the following compound: "CN1CCN(c2ccc(C(=O)Nc3cc(-c4ccc(NC(=O)Oc5ccccc5)cc4)n[nH]3)cc2)CC1"
RESULT: 6.49

QUERY: Repeat for the following compound: "O=C(NCc1ccc(-c2cc(NC(=O)c3ccc(OCCN4CCOCC4)cc3)[nH]n2)cc1)OCc1ccccc1"
RESULT: 6.43

QUERY: Repeat for the following compound: "Cc1nc(Nc2cc(-c3ccc(CNC(=O)OCc4ccccc4)cc3)n[nH]2)cc(N2CCN(CCO)CC2)n1"
RESULT: 6.54

QUERY: Repeat for the following compound: "CN1CCN(c2ccc(C(=O)Nc3cc(-c4ccc(NC(=O)OCc5ccccc5)cc4)n[nH]3)cc2)CC1"
RESULT: 6.70

QUERY: Repeat for the following compound: "O=C(NCc1ccc(-c2cc(NC(=O)c3ccc(OCCN4CCCC4)cc3)[nH]n2)cc1)OCc1ccccc1"
RESULT: 7.15

QUERY: Repeat for the following compound: "CN1CCN(c2ccc(C(=O)Nc3cc(-c4ccc(CNC(=O)Oc5ccccc5)cc4)n[nH]3)cc2)CC1"
RESULT: 7.27

QUERY: Repeat for the following compound: "O=C(NCc1ccc(-c2cc(NC(=O)c3ccc(OCCCN4CCCC4)cc3)[nH]n2)cc1)OCc1ccccc1"
RESULT: 6.74

QUERY: Repeat for the following compound: "CN1CCN(c2ccc(C(=O)Nc3cc(-c4ccc(CNC(=O)OCc5ccccc5)cc4)n[nH]3)cc2)CC1"
RESULT: 7.70

Origin of the recorded values: ChEMBL document CHEMBL2062390
